# target-under-test: Tyrosine-protein phosphatase non-receptor type 1 (Homo sapiens, UniProt P18031)
# procedure-summary: Inhibition of human recombinant GST-tagged PTP1B using para-nitrophenyl phosphate as substrate after 2 mins
observable: IC50 (nM)

INSERT INTO assay_data (query_smiles, observable, result_number) VALUES
  ('Oc1cc(Cc2cc(Br)c(O)c(Br)c2Br)c(Br)c(Br)c1O', 'IC50', 2420);

* * *

# target-under-test: Tyrosine-protein phosphatase non-receptor type 1 (Homo sapiens) (UniProt P18031)
# Sequence (P18031 whole entry): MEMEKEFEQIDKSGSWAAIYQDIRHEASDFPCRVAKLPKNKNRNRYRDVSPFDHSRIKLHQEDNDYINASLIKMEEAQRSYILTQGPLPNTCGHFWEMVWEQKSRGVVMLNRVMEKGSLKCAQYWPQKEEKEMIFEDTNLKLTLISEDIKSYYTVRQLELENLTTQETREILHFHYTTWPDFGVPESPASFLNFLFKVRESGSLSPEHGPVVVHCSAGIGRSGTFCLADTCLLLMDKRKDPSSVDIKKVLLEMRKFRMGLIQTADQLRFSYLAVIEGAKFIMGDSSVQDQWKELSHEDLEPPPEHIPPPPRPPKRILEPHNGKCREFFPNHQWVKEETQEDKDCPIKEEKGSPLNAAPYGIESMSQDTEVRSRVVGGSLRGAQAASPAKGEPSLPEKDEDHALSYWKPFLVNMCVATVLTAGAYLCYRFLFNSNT
# recorded-conditions: at 5 µg/mL
# Description: Inhibition of human recombinant GST-tagged PTP1B using para-nitrophenyl phosphate as substrate at 5 ug/ml after 2 mins
observable: inhibition (%)

INSERT INTO measurements (query_smiles, unit_name, result_number) VALUES
  ('CCCCOCc1cc(O)c(O)c(Br)c1Cc1cc(O)c(O)c(Br)c1Br', '%', 27.2),
  ('COc1cc(C)c(Cc2c(Br)c(Br)c(OC)c(OC)c2Br)c(Br)c1OC', '%', 38.2),
  ('Cc1cc(O)c(O)c(Br)c1Cc1cc(O)c(O)c(Br)c1Br', '%', 32.1),
  ('CCOCc1cc(O)c(O)c(Br)c1Cc1cc(O)c(O)c(Br)c1', '%', 17.3),
  ('COc1c(Br)c(C)c(Cc2c(Br)c(Br)c(OC)c(OC)c2Br)c(Br)c1OC', '%', 40.1),
  ('CC(C)COCc1cc(O)c(O)c(Br)c1Cc1cc(O)c(O)c(Br)c1Br', '%', 48.3),
  ('CCCOCc1cc(O)c(O)c(Br)c1Cc1cc(O)c(O)c(Br)c1Br', '%', 55.7),
  ('COC(=O)c1cc(OC)c(OC)c(Br)c1C(=O)c1cc(OC)c(OC)c(Br)c1Br', '%', 23.8),
  ('COc1cc(Cc2c(C)cc(OC)c(OC)c2Br)c(Br)c(Br)c1OC', '%', 43.1),
  ('COCc1cc(OC)c(OC)c(Br)c1C(=O)c1cc(OC)c(OC)c(Br)c1Br', '%', 17.7),
  ('CCOCc1cc(OC)c(OC)c(Br)c1C(=O)c1cc(OC)c(OC)c(Br)c1Br', '%', 17.6),
  ('COCc1cc(O)c(O)c(Br)c1Cc1cc(O)c(O)c(Br)c1Br', '%', 25.3),
  ('COc1cc(Cc2c(CO)cc(OC)c(OC)c2Br)c(Br)c(Br)c1OC', '%', 29.1);

* * *

compounds and their reported inhibition
# target-under-test: Tyrosine-protein phosphatase non-receptor type 1 (Homo sapiens)
# recorded-conditions: at 20 µg/mL
# Description: Inhibition of human recombinant GST-tagged PTP1B using para-nitrophenyl phosphate as substrate at 20 ug/ml after 2 mins
observable: inhibition (%)

INSERT INTO assay_data (compound, observable, result_number) VALUES
  ('CCOCc1cc(OC)c(OC)c(Br)c1C(=O)c1cc(OC)c(OC)c(Br)c1Br', 'inhibition', 73.8),
  ('Cc1cc(O)c(O)c(Br)c1Cc1cc(O)c(O)c(Br)c1Br', 'inhibition', 53.4),
  ('COCc1cc(OC)c(OC)c(Br)c1C(=O)c1cc(OC)c(OC)c(Br)c1Br', 'inhibition', 61.8),
  ('CCCCOCc1cc(O)c(O)c(Br)c1Cc1cc(O)c(O)c(Br)c1Br', 'inhibition', 64.6),
  ('COc1cc(C(=O)c2c(C)cc(OC)c(OC)c2Br)cc(Br)c1OC', 'inhibition', 36.7),
  ('COc1cc(Cc2c(CO)cc(OC)c(OC)c2Br)c(Br)c(Br)c1OC', 'inhibition', 74.9),
  ('COc1cc(C2OCc3cc(OC)c(OC)c(Br)c32)c(Br)c(Br)c1OC (stereo unspecified)', 'inhibition', 11.4),
  ('COc1cc(C(=O)c2c(C(=O)O)cc(OC)c(OC)c2Br)c(Br)c(Br)c1OC', 'inhibition', 29.9),
  ('CCOCc1cc(O)c(O)c(Br)c1Cc1cc(O)c(O)c(Br)c1', 'inhibition', 50.6),
  ('COc1cc(Cc2c(C)cc(OC)c(OC)c2Br)c(Br)c(Br)c1OC', 'inhibition', 87.5),
  ('COc1cc(C)c(Cc2c(Br)c(Br)c(OC)c(OC)c2Br)c(Br)c1OC', 'inhibition', 72.6),
  ('COc1cc(C2OC(=O)c3cc(OC)c(OC)c(Br)c32)c(Br)c(Br)c1OC (stereo unspecified)', 'inhibition', 10.6),
  ('COc1cc(Cc2c(CO)cc(OC)c(OC)c2Br)cc(Br)c1OC', 'inhibition', 5.62),
  ('CCCOCc1cc(O)c(O)c(Br)c1Cc1cc(O)c(O)c(Br)c1Br', 'inhibition', 86.2),
  ('COCc1cc(O)c(O)c(Br)c1Cc1cc(O)c(O)c(Br)c1Br', 'inhibition', 51.9),
  ('COc1c(Br)c(C)c(Cc2c(Br)c(Br)c(OC)c(OC)c2Br)c(Br)c1OC', 'inhibition', 75.3),
  ('COC(=O)c1cc(OC)c(OC)c(Br)c1C(=O)c1cc(OC)c(OC)c(Br)c1Br', 'inhibition', 55.3),
  ('COc1cc(C(=O)c2c(C)cc(OC)c(OC)c2Br)c(Br)c(Br)c1OC', 'inhibition', 48.6),
  ('COc1cc(Cc2c(C)cc(OC)c(OC)c2Br)cc(Br)c1OC', 'inhibition', 14.5),
  ('COc1ccc(C(=O)c2c(C)cc(OC)c(OC)c2Br)cc1OC', 'inhibition', 28.9),
  ('CC(C)COCc1cc(O)c(O)c(Br)c1Cc1cc(O)c(O)c(Br)c1Br', 'inhibition', 96.2);
